Entries annotated with measured pIC50
target: Histone deacetylase 1 (Homo sapiens); experiment: Inhibition of full length recombinant human C-terminal FLAG/His-tagged HDAC1 expressed in baculovirus expression system using Boc-Lys(acetyl)-AMC as substrate preincubated for 90 mins followed by substrate addition measured after 2 hrs by fluorescence assay
Sequence (Q13547 whole entry): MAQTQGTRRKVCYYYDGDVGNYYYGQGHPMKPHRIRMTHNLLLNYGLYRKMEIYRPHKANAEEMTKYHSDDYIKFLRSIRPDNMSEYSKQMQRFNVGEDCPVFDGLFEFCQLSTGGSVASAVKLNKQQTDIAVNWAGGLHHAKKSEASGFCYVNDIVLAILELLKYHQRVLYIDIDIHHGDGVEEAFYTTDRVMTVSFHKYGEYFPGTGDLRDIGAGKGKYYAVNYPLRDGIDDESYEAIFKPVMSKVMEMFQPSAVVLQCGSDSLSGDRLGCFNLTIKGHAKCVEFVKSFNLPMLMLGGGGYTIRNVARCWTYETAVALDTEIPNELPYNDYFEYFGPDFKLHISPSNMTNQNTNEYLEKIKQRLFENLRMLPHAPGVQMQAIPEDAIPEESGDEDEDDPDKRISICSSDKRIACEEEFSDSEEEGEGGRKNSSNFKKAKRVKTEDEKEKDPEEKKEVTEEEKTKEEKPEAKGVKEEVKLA
// returns pIC50 (minus log10 of molar concentration), number only

COc1ccc(C(=O)N[C@@H](Cc2c[nH]c3ccccc23)C(=O)NCc2ccc(C(=O)Nc3ccccc3N)cc2)cc1
7.46

## Input Identify the reported pIC50 for the following entry. `CCCNNC(=O)c1ccc(CNC(=O)[C@H](Cc2c[nH]c3ccccc23)NC(=O)c2ccc(OC)cc2)cc1`
## Output 7.48
